# assayed target: AR (Homo sapiens)
# Construct: endogenous in cells; host or cells: VCaP cells
# Sequence (P10275 whole entry): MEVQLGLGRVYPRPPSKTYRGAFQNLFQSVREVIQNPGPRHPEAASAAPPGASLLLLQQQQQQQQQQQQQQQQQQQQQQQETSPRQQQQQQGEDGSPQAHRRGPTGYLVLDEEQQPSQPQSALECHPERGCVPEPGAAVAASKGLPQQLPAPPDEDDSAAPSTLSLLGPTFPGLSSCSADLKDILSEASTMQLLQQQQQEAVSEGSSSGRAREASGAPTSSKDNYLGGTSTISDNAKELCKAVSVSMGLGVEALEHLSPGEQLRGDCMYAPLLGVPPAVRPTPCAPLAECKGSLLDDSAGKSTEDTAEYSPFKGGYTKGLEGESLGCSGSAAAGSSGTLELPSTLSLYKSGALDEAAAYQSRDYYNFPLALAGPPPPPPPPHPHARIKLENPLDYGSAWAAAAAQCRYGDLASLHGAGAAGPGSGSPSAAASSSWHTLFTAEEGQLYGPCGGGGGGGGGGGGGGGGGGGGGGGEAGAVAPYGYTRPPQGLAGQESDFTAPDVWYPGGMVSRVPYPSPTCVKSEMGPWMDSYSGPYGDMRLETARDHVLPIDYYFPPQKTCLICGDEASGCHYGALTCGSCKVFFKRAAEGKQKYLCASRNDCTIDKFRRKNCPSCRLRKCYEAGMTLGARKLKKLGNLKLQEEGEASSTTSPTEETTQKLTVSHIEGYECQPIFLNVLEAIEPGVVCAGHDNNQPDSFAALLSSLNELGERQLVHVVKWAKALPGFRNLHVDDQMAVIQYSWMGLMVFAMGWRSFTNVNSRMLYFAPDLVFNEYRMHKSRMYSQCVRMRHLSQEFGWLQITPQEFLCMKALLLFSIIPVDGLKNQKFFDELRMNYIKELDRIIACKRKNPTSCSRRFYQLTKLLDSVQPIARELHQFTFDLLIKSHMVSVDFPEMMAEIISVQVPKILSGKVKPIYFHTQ
# assay notes: VCAP AR Degradation Assay
# Type: cell-based
# stated conditions: VCaP cells, 24 h, AR ELISA; concentration of compound when AR level = 50% of DMSO control
Where a name gives a salt, the structure may show the parent alone.
readout: DC50

Ask: Specify measured DC50 for CC1(C)C(=O)N(c2cnc(C#N)c(C(F)(F)F)c2)C(=S)N1[C@H]1CC[C@H](OCCN2CCN(CC(=O)Nc3cc(C4CCC(=O)NC4=O)ccn3)[C@@H](C(F)(F)F)C2)CC1 (stereo partly drawn) [Cmpd 22] .
Reply: ≤ 5 nM

Ask: Supply recorded DC50 for C[C@@H]1CN(CCO[C@H]2CC[C@H](N3C(=S)N(c4ccc(C#N)c(C(F)(F)F)c4)C(=O)C3(C)C)CC2)C[C@H](C)N1CC(=O)Nc1cc(C2(C)CCC(=O)NC2=O)ccn1 (single isomer, unassigned) [Cmpd 8, hydrochloride] here.
Reply: ≤ 5 nM

Ask: Supply DC50 value. Item: C[C@@H]1CN(CCCO[C@H]2CC[C@H](N3C(=S)N(c4ccc(C#N)c(C(F)(F)F)c4)C(=O)C3(C)C)CC2)C[C@H](C)N1CC(=O)Nc1cc(C2CCC(=O)NC2=O)ccn1 (stereo partly drawn) [Cmpd 13, hydrochloride]
Reply: ≤ 5 nM

Ask: Complete the entry with DC50 for C[C@@H]1CN(CCO[C@H]2CC[C@H](N3C(=S)N(c4ccc(C#N)c(C(F)(F)F)c4)C(=O)C3(C)C)CC2)C[C@H](C)N1CC(=O)Nc1cc(C2(C)CCC(=O)NC2=O)ccn1 (single isomer, unassigned) [Cmpd 9, hydrochloride]
Reply: ≤ 5 nM

Ask: Indicate the recorded DC50 value for this molecule: CC1(C)C(=O)N(c2ccc(C#N)c(C(F)(F)F)c2)C(=S)N1[C@H]1CC[C@H](OCCCN2CCN(CC(=O)Nc3cc(C4CCC(=O)NC4=O)ccn3)[C@@H](C(F)(F)F)C2)CC1 (stereo partly drawn) [Cmpd 24]
Reply: ≤ 5 nM

Ask: Check the records and state DC50 for C[C@@H]1C[C@H](OCCC[C@H]2CC[C@H](N3C(=S)N(c4ccc(C#N)c(C(F)(F)F)c4)C(=O)C3(C)C)CC2)C[C@H](C)N1CC(=O)Nc1cc(C2CCC(=O)NC2=O)ccn1 (stereo partly drawn) [Cmpd 28]
Reply: 5 to 50 nM
